System: HEp-2
Assay: Cytotoxic activity against uninfected HEp-2 human […] epithelial carcinoma cell line
Type: functional
The following compounds are listed with their measured CC50 values.
Give the quantity in µM, number only.

Return CC50 (reported value) for this compound: `C=C(C)n1c(=O)n(Cc2nc3ccccc3n2CCC#N)c2ccccc21`
79.6

Return CC50 (reported value) for this compound: `CC(C)n1c(=O)n(Cc2nc3ccccc3n2CCCCO)c2ccccc21`
68.3

Return CC50 (reported value) for this compound: `C=C(C)n1c(=O)n(Cc2nc3ccccc3n2CCCCC#N)c2ccccc21`
193

Return CC50 (reported value) for this compound: `CC(C)CCn1c(Cn2c(O)nc3ccccc32)nc2ccccc21`
61.1

Return CC50 (reported value) for this compound: `CC(C)CCn1c(Cn2c(=O)n(Cc3ccc(O)cc3)c3ccccc32)nc2ccccc21`
59.9

Return CC50 (reported value) for this compound: `CC(C)CCn1c(Cn2c(=O)n(S(=O)(=O)N(C)C)c3ccccc32)nc2ccccc21`
27.1

Return CC50 (reported value) for this compound: `CCn1c(=O)n(Cc2nc3ccccc3n2CCO)c2ccccc21`
64.1

Return CC50 (reported value) for this compound: `N#CCCn1c(Cn2c(=O)n(-c3ccccc3)c3ccccc32)nc2ccccc21`
87

---

Tested on: HEp-2
Experiment: Cytotoxic activity against uninfected HEp-2 human […] epithelial carcinoma cell line
Type: functional
measure: CC50 (µM)
Give the quantity in µM, number only.

Return CC50 (reported value) for this compound: `C=C(C)n1c(=O)n(Cc2nc3ccccc3[nH]2)c2ccccc21`
28.4

---

The following compounds are listed with their measured selectivity ratio values.
Experiment: Therapeutic index expressed as the ratio between CC50 and EC50
Type: cell-based
Conditions: human, HEp-2 cells; read-out: Therapeutic index
Respond with the number and no other words.

INSERT INTO measurements (compound, val) VALUES
  ('CC(C)CCn1c(Cn2c(=O)n(Cc3ccc(C#N)cc3)c3ccccc32)nc2ccccc21', 465),
  ('CCOC(=O)n1c(=O)n(Cc2nc3ccccc3n2CCC(C)C)c2ccccc21', 193),
  ('CCn1c(=O)n(Cc2nc3ccccc3n2CCCCO)c2ccccc21', 11000);

Return selectivity ratio (reported value) for this compound: `CC(C)CCn1c(Cn2c(=O)n(Cc3ccc(S(C)(=O)=O)cc3)c3ccccc32)nc2ccccc21`
833

Return selectivity ratio (reported value) for this compound: `CC(C)n1c(=O)n(Cc2nc3ccccc3n2CCC#N)c2ccccc21`
9190

Return selectivity ratio (reported value) for this compound: `CC(C)CCn1c(Cn2c(=O)n(CCCC#N)c3ccccc32)nc2ccccc21`
1490

Return selectivity ratio (reported value) for this compound: `CC(C)CCn1c(Cn2c(=O)n(CCCCC#N)c3ccccc32)nc2ccccc21`
428

Return selectivity ratio (reported value) for this compound: `C=C(C)n1c(=O)n(Cc2nc3ccccc3n2CCC(C)C)c2ccccc21`
6180

Return selectivity ratio (reported value) for this compound: `CCn1c(=O)n(Cc2nc3ccccc3n2CC(=O)c2ccccc2)c2ccccc21`
241

Return selectivity ratio (reported value) for this compound: `CS(=O)(=O)CCCn1c(Cn2c(O)nc3ccccc32)nc2ccccc21`
144

Return selectivity ratio (reported value) for this compound: `CCn1c(=O)n(Cc2nc3ccccc3n2CCC(C)C)c2ccccc21`
1690

---

Assay: Therapeutic index expressed as the ratio between CC50 and EC50
Type: cell-based
Conditions: human, HEp-2 cells; read-out: Therapeutic index
measure: selectivity ratio
Respond with the number and no other words.

Return selectivity ratio (reported value) for this compound: `CCNC(=O)n1c(=O)n(Cc2nc3ccccc3n2CCC(C)C)c2ccccc21`
359

Return selectivity ratio (reported value) for this compound: `CC(C)CCn1c(Cn2c(=O)n(C(=O)NCc3ccccc3)c3ccccc32)nc2ccccc21`
74

Return selectivity ratio (reported value) for this compound: `C=C(C)n1c(=O)n(Cc2nc3ccccc3n2CCCCCC#N)c2ccccc21`
946

Return selectivity ratio (reported value) for this compound: `CC(C)CCn1c(Cn2c(=O)n(C(N)=O)c3ccccc32)nc2ccccc21`
2670

Return selectivity ratio (reported value) for this compound: `CC(C)n1c(=O)n(Cc2nc3ccccc3n2CCCCO)c2ccccc21`
6210

Return selectivity ratio (reported value) for this compound: `CCn1c(=O)n(Cc2nc3ccccc3n2CCCO)c2ccccc21`
17900

Return selectivity ratio (reported value) for this compound: `C=C(C)n1c(=O)n(Cc2nc3ccccc3n2CCC#N)c2ccccc21`
5310

Return selectivity ratio (reported value) for this compound: `C=C(C)n1c(=O)n(Cc2nc3ccccc3n2CCCCC#N)c2ccccc21`
7140

Return selectivity ratio (reported value) for this compound: `CC(C)CCn1c(Cn2c(=O)n(S(C)(=O)=O)c3ccccc32)nc2ccccc21`
2330

---

Test: Therapeutic index expressed as the ratio between CC50 and EC50
Assay type: cell-based
Details: human, HEp-2 cells; read-out: Therapeutic index
Hi! Just check whether selectivity ratio is below 1000. Below gives YES, equal or above gives NO.

Some entries whose results are on file:
INSERT INTO measurements (smiles_notation, label_value) VALUES
  ('CC(=O)n1c(=O)n(Cc2nc3ccccc3n2CCC(C)C)c2ccccc21', 'YES'),
  ('CC1(CCn2c(Cn3c(=O)n(Cc4cc(I)c(O)c(I)c4)c4ccccc43)nc3ccccc32)N=N1', 'YES'),
  ('C=C(C)n1c(=O)n(Cc2nc3ccccc3n2CCCCO)c2ccccc21', 'NO'),
  ('N#Cc1ccc(Cn2c(=O)n(Cc3nc4ccccc4n3CCCCO)c3ccccc32)cc1', 'YES');

Item `CC(C)CCn1c(Cn2c(O)nc3ccccc32)nc2ccccc21` : selectivity ratio beneath 1000, strictly?
NO

---

Assay: Therapeutic index expressed as the ratio between CC50 and EC50
Assay type: cell-based
Conditions: human, HEp-2 cells; read-out: Therapeutic index
The following compounds are listed with their measured selectivity ratio values.
Respond with the number and no other words.

INSERT INTO results (smiles_notation, val) VALUES
  ('C=CCn1c(=O)n(Cc2nc3ccccc3n2CCC(C)C)c2ccccc21', 800);

Return selectivity ratio (reported value) for this compound: `CC(C)CCn1c(Cn2c(=O)n(C(=O)Nc3ccccc3)c3ccccc32)nc2ccccc21`
526

---

Tested on: HEp-2
Assay: Cytotoxic activity against uninfected HEp-2 human […] epithelial carcinoma cell line
Format: functional
// classify(record): look up CC50 in ranges one = under 20 µM, two = from 20 µM up to 100 µM, three = 100 µM and over

Some entries whose results are on file:
INSERT INTO results (compound, label_value) VALUES
  ('CC(C)n1c(=O)n(Cc2nc3ccccc3n2CCCCCCC#N)c2ccccc21', 'three'),
  ('CC(C)CCn1c(Cn2c(=O)n(Cc3cc(I)c(O)c(I)c3)c3ccccc32)nc2ccccc21', 'three'),
  ('CC1(CCn2c(Cn3c(=O)n(Cc4ccc(O)cc4)c4ccccc43)nc3ccccc32)N=N1', 'three'),
  ('CC(C)CCn1c(Cn2c(=O)n(Cc3ccc(S(=O)(=O)N(C)C)cc3)c3ccccc32)nc2ccccc21', 'three'),
  ('C=CCn1c(=O)n(Cc2nc3ccccc3n2CCC(C)C)c2ccccc21', 'one'),
  ('CC(C)CCn1c(Cn2c(=O)n(Cc3ccc(C(=O)N(C)C)cc3)c3ccccc32)nc2ccccc21', 'two'),
  ('CC(O)CCn1c(Cn2c(O)nc3ccccc32)nc2ccccc21 (centres undefined)', 'three'),
  ('N#Cc1ccc(Cn2c(=O)n(Cc3nc4ccccc4n3CCCCO)c3ccccc32)cc1', 'two');

Input C=C(C)n1c(=O)n(Cc2nc3ccccc3n2CCC(C)O)c2ccccc21 (centres undefined) ; output its category
three

Input `C=C(C)n1c(=O)n(Cc2nc3ccccc3n2CCCCO)c2ccccc21` ; output its category
three

Input `CC(=O)CCn1c(Cn2c(O)nc3ccccc32)nc2ccccc21` ; output its category
three

Input `CC(C)CCn1c(Cn2c(=O)n(Cc3ccc(S(C)(=O)=O)cc3)c3ccccc32)nc2ccccc21` ; output its category
one

Input `CC(C)CCn1c(Cn2c(=O)n(S(=O)(=O)C(C)C)c3ccccc32)nc2ccccc21` ; output its category
one

Input `CC(C)CCn1c(Cn2c(=O)n(CCCCCC#N)c3ccccc32)nc2ccccc21` ; output its category
one

Input `N#CCCCCn1c(=O)n(Cc2nc3ccccc3n2CCCC#N)c2ccccc21` ; output its category
three

Input `CC(C)CCn1c(Cn2c(=O)n(S(C)(=O)=O)c3ccccc32)nc2ccccc21` ; output its category
one

---

The following compounds are listed with their measured CC50 values.
Test system: HEp-2
Assay: Cytotoxic activity against uninfected HEp-2 human […] epithelial carcinoma cell line
Type: functional
Give the quantity in µM, number only.

Illustrative cases are given below, each with its answer.
INSERT INTO measurements (smiles_notation, measure, val) VALUES
  ('C=C(C)n1c(=O)n(Cc2nc3ccccc3n2CCCCCCC#N)c2ccccc21', 'CC50', 36),
  ('CS(=O)(=O)CCCn1c(Cn2c(O)nc3ccccc32)nc2ccccc21', 'CC50', 216),
  ('CCn1c(=O)n(Cc2nc3ccccc3n2CC(=O)c2ccccc2)c2ccccc21', 'CC50', 27.1),
  ('CC(=O)n1c(=O)n(Cc2nc3ccccc3n2CCC(C)C)c2ccccc21', 'CC50', 116),
  ('CC(C)CCn1c(Cn2c(=O)n(Cc3ccc(C#N)cc3)c3ccccc32)nc2ccccc21', 'CC50', 5.59);

Return CC50 (reported value) for this compound: `CCn1c(=O)n(Cc2nc3ccccc3n2CCCCO)c2ccccc21`
154

Return CC50 (reported value) for this compound: `C=C(C)n1c(=O)n(Cc2nc3ccccc3n2CCCCCC#N)c2ccccc21`
12.3

Return CC50 (reported value) for this compound: `CCNC(=O)n1c(=O)n(Cc2nc3ccccc3n2CCC(C)C)c2ccccc21`
18.7
